Numbers sourced from patent US20150361164A1.

Target: T1, bovine thymus-derived HMGB1 (bovine, UniProt P10103 2-215)
T1 construct: Bought protein from tissue
T1 sequence (looked up): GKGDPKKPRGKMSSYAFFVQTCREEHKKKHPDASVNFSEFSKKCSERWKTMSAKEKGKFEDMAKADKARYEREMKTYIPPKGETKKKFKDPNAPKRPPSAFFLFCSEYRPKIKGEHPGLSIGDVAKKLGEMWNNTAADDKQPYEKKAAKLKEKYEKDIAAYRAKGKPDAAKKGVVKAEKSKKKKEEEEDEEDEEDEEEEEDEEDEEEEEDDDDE
Test: ELISA on HMGB1-immobilized immunoplate, antibodies adjusted to an equal concentration; OD as % of EV007156 (L) + #10-22 chimera (H) (source of the HMGB1 not named for this figure)
Test Readout: binding result

1. D82aN (antibody, human IgG1, lambda, V domains shown, co-expressed with EV007156L in CHO-K1 cells; also called #10-22 chimeric antibody (H chain) site substitution variant D82aN; copies: 2 + 2) VH: AVQLVESGGGLVQPKESLKISCAASGFTFSNAAMYWVRQAPGKGLEWVARIRTKPNNYATYYADSVKGRFTISRDDSKSMVYLQMNNLKTEDTAMYYCTAPRRTEGIVSSGVDYWGQGVMVTVSS VL: YELTQPPSVSVSPGQTASITCSGDELPKRYAYWYQQKPGQSIVRVIYKDSERPSGIPERFSGSSSGTTATLTISGTQAEDEADYYCHSTYSDDKLPVFGGGTKLTVLG : binds
